# credit: PubChem BioAssay (NCI)

# key: entry, value: TGI
- Tested on: LXFL 529 NSCLC
- TEST NAME: NCI tumour cell line growth inhibition, 48 h
ASSAY METRIC: TGI

molecule=Cc1ccc(Sc2ccccc2N)cc1 target_of_assay="LXFL 529 NSCLC" assay_metric=TGI experimental_result="32.9 µM"
molecule=Cc1ccc(S(=O)(=O)OCCOCCOCCOCCOCCOS(=O)(=O)c2ccc(C)cc2)cc1 target_of_assay="LXFL 529 NSCLC" assay_metric=TGI experimental_result="> 100 µM"
molecule=CC1=C(C(=O)CC(=O)C(=O)Nc2ccc(C)c(C)c2)Sc2ccccc2N1 target_of_assay="LXFL 529 NSCLC" assay_metric=TGI experimental_result="> 100 µM"
molecule="CC(C)C(Sc1nc(-c2ccccc2)c(-c2ccccc2)[nH]1)c1n[nH]c(=S)n1-c1ccccc1 (stereo not given)" target_of_assay="LXFL 529 NSCLC" assay_metric=TGI experimental_result="54.4 µM"
molecule=COc1cccc(NC(=O)CC(=O)NN2C(=O)/C(=C/c3ccc(N(CCC#N)CCC#N)cc3)N=C2c2cc([N+](=O)[O-])ccc2Cl)c1 target_of_assay="LXFL 529 NSCLC" assay_metric=TGI experimental_result="> 100 µM"
molecule="Cc1ccc(C2=Nc3ccccc3S(=O)C(c3ccc4c(c3)OCO4)C2)cc1 (stereo not given)" target_of_assay="LXFL 529 NSCLC" assay_metric=TGI experimental_result="> 10 µM"
molecule=O=C(O)CN(c1ccc(F)cc1)S(=O)(=O)c1ccccc1 target_of_assay="LXFL 529 NSCLC" assay_metric=TGI experimental_result="> 100 µM"
molecule=O=C(CSSCC(=O)OCCS(=O)(=O)Nc1ccc(Br)cc1)OCCS(=O)(=O)Nc1ccc(Br)cc1 target_of_assay="LXFL 529 NSCLC" assay_metric=TGI experimental_result="34.1 µM"
molecule="O=C(CC1(O)C(=O)Nc2c(Cl)cc(Cl)cc21)c1ccc(F)cc1 (stereo not given)" target_of_assay="LXFL 529 NSCLC" assay_metric=TGI experimental_result="> 100 µM"
molecule=CC(C)OP(=O)(OC(C)C)C(=NCCN=C(NNc1ccccc1[N+](=O)[O-])P(=O)(OC(C)C)OC(C)C)NNc1ccccc1[N+](=O)[O-] target_of_assay="LXFL 529 NSCLC" assay_metric=TGI experimental_result="> 100 µM"

----------
- System: UACC-62 melanoma
- TEST NAME: NCI tumour cell line growth inhibition, 48 h; in the data active = GI50 below about 0.43 µM; inactive = the rest
Labels: 1 (yes) (active), 0 (no) (inactive)

compound=COc1ccc(NC(=O)c2ccc(NC3=C(Cl)C(=O)N(Cc4ccccc4)C3=O)cc2)c(OC)c1 category_label="0 (no)"
compound=C/C=C(\C)C(=O)O[C@H]1C=CC(=O)O[C@H]1COC(=O)[C@H](C)O category_label="0 (no)"
compound="O=C1c2c(Cl)c(Cl)c(Cl)c(Cl)c2C(=O)C2(Cl)CC=CCC12Cl (centres undefined)" category_label="0 (no)"
compound=Cc1[nH]nc2ncc(C(=O)N3CCC[C@H]3c3ccc(Cl)cc3)cc12 category_label="0 (no)"
compound="COc1ccc2c(c1)C(c1cc(OC)c3c(c1)OCO3)C1=C(COC1=O)N2 (centres undefined)" category_label="1 (yes)"
compound="[Cu+2].[NH-]C(CC(=O)O)C(=O)O.[NH-]C(CC(=O)O)C(=O)O (centres undefined)" category_label="0 (no)"
compound=Nc1ncn([C@H]2C[C@H](OP(=O)(O)OC[C@H]3O[C@@H](n4cnc5c(=O)[nH]c(N)nc54)C[C@@H]3O)[C@@H](CO)O2)c(=O)n1 category_label="0 (no)"
compound=Cc1ccc(OCCOCCOCCOCCOCCOc2ccc(C)n(O)c2=S)c(=S)n1O category_label="1 (yes)"
compound="Cc1ccccc1C(C(=O)NC1CCCCC1)N(C(=O)CNc1ccc(C#N)cc1)c1cccc(F)c1 (centres undefined)" category_label="0 (no)"

----------
- Test system: HL-60(TB) leukemia
- TEST NAME: NCI tumour cell line growth inhibition, 48 h
ASSAY METRIC: GI50

smiles_text=COc1cc(CCC(=O)NC[C@@H](O)c2ccccc2)ccc1O assay_metric=GI50 experimental_result="> 100 µM"
smiles_text=COc1ccc(-c2cn(-c3cc(OC)c(OC)c(OC)c3)c(=O)[nH]2)cc1OC assay_metric=GI50 experimental_result="> 100 µM"
smiles_text=O=[N+]([O-])c1ccc2c(c1)C(c1ccccc1Cl)=Nc1c(n[nH]c1-c1cccnc1)N2 assay_metric=GI50 experimental_result="> 25 µM"
smiles_text=COc1ccc(Cn2cc3c(c2-c2cc(OC)c(OC)c(OC)c2)CCc2c(CO)noc2-3)cc1 assay_metric=GI50 experimental_result="0.231 µM"
smiles_text=Cn1cc(C2=C(c3cn(CCCCCO)c4ccccc34)C(=O)NC2=O)c2ccccc21 assay_metric=GI50 experimental_result="4.08 µM"

----------
- System: SF-268 CNS
- TEST NAME: NCI tumour cell line growth inhibition, 48 h
Residues, ends and D or L forms follow the SMILES beside them. *: point of attachment. Cbz = O=C(OCc1ccccc1)*
GI50: recorded values
ASSAY METRIC: GI50

compound="O=C1c2c(Cl)c(Cl)c(Cl)c(Cl)c2C(=O)C2(Cl)CC=CCC12Cl (stereo not drawn)" target_of_assay="SF-268 CNS" experimental_result="1.76 µM"
compound="COc1ccc2c(c1)C(c1cc(OC)c3c(c1)OCO3)C1=C(COC1=O)N2 (stereo not drawn)" target_of_assay="SF-268 CNS" experimental_result="0.691 µM"
compound=CCCN(CCC)c1ccc(C=O)c(C)c1 target_of_assay="SF-268 CNS" experimental_result="68 µM"
compound="N#CC1=C(N)Oc2c(sc3c(Br)cccc23)C1c1ccc(Cl)cc1 (stereo not drawn)" target_of_assay="SF-268 CNS" experimental_result="0.917 µM"
compound="CC(C)C[C@@H](C=O)NC(=O)[C@H](CC(C)C)NC(=O)[C@H](CC(C)C)NC(=O)OCc1ccccc1 (Cbz-Leu-Leu-Leu-aldehyde)" target_of_assay="SF-268 CNS" experimental_result="0.297 µM"
compound="C=C1CC2C3C=C(C)C4=CC(=O)CC[C@]4(C)C3CC[C@]2(C)[C@@]1(OC(C)=O)C(C)=O (stereo partly drawn)" target_of_assay="SF-268 CNS" experimental_result="5.46 µM"
compound=C=CC(=O)N1CC[C@H](n2nc(C#Cc3cc(OC)cc(OC)c3)c3c(N)ncnc32)C1 target_of_assay="SF-268 CNS" experimental_result="4.19 µM"
compound=C/C=C(\C)C(=O)O[C@H]1C=CC(=O)O[C@H]1COC(=O)[C@H](C)O target_of_assay="SF-268 CNS" experimental_result="4.32 µM"
compound=COc1ccc(-c2cn(-c3cc(OC)c(OC)c(OC)c3)c(=O)[nH]2)cc1OC target_of_assay="SF-268 CNS" experimental_result="> 100 µM"
compound=Cc1ccc(OCCOCCOCCOCCOCCOc2ccc(C)n(O)c2=S)c(=S)n1O target_of_assay="SF-268 CNS" experimental_result="0.0693 µM"
compound=O=C([CH-]C(=O)c1ccccc1)c1ccccc1.O=C([CH-]C(=O)c1ccccc1)c1ccccc1.O=C([CH-]C(=O)c1ccccc1)c1ccccc1.[Cl-].[Hf+4] target_of_assay="SF-268 CNS" experimental_result="26.4 µM"
compound=O=S(=O)(NCCCNc1cc(-c2cn(-c3ccccc3)nc2-c2cccc(O)c2)ccn1)c1ccc(Br)cc1 target_of_assay="SF-268 CNS" experimental_result="1.45 µM"
compound=C=CC(=O)Nc1cccc(Oc2nc(Nc3ccc(N4CCN(C)CC4)cc3OC)ncc2Cl)c1 target_of_assay="SF-268 CNS" experimental_result="2.37 µM"
compound=COc1ccc(NC(=O)c2ccc(NC3=C(Cl)C(=O)N(Cc4ccccc4)C3=O)cc2)c(OC)c1 target_of_assay="SF-268 CNS" experimental_result="29.1 µM"
compound=O=C(c1ccccc1)c1nc2ccc(C(F)(F)F)cc2nc1N1CCN(c2ccccc2)CC1 target_of_assay="SF-268 CNS" experimental_result="48 µM"
compound=Cc1sc2c(c1C)C(c1ccc(Cl)cc1)=N[C@@H](CC(=O)NCCCN1CCN(C)CC1)c1nnc(C)n1-2 target_of_assay="SF-268 CNS" experimental_result="30.3 µM"
compound=Cc1c2c(nn1-c1ccc(S(=O)(=O)NC(=S)NC(=O)c3ccccc3)cc1)-c1ccccc1CC2 target_of_assay="SF-268 CNS" experimental_result="29.3 µM"
compound=COc1ccc(Cn2cc3c(c2-c2cc(OC)c(OC)c(OC)c2)CCc2c(CO)noc2-3)cc1 target_of_assay="SF-268 CNS" experimental_result="1.58 µM"

----------
- Test system: SNB-19 CNS
- TEST NAME: NCI tumour cell line growth inhibition, 48 h
ASSAY METRIC: GI50

compound=O=S(=O)(NCCCNc1cc(-c2cn(-c3ccccc3)nc2-c2cccc(O)c2)ccn1)c1ccc(Br)cc1 target_of_assay="SNB-19 CNS" experimental_result="2980 nM"
compound=C=C1c2nc3ccccc3n2C=C(c2ccc(Cl)cc2)N1c1ccc(OCCN2CCCCC2)cc1 target_of_assay="SNB-19 CNS" experimental_result="4530 nM"
compound=O=C1c2cc(F)ccc2-c2c1c1ccc([N+](=O)[O-])cc1c(=O)n2CCCBr target_of_assay="SNB-19 CNS" experimental_result="8130 nM"
compound=Cc1[nH]nc2ncc(C(=O)N3CCC[C@H]3c3ccc(Cl)cc3)cc12 target_of_assay="SNB-19 CNS" experimental_result="> 100000 nM"
compound=COC(=O)c1oc2c(C(=O)/C=C/c3ccc(OC)cc3)c(OCCN3CCOCC3)ccc2c1C target_of_assay="SNB-19 CNS" experimental_result="1650 nM"
compound=C=C1C(=O)O[C@H]2[C@H]1CC/C(CNC(=O)/C=C/c1ccccc1F)=C\CC[C@@]1(C)O[C@@H]21 target_of_assay="SNB-19 CNS" experimental_result="3830 nM"
compound="O=C1CC(N2C(=O)/C(=C/C(Cl)=C\\c3ccc([N+](=O)[O-])cc3)SC2=S)C(=O)N1c1ccc(O)cc1 (stereo not drawn)" target_of_assay="SNB-19 CNS" experimental_result="1340 nM"
compound=Cc1sc2c(c1C)C(c1ccc(Cl)cc1)=N[C@@H](CC(=O)NCCCN1CCN(C)CC1)c1nnc(C)n1-2 target_of_assay="SNB-19 CNS" experimental_result="987 nM"
